# tested-target: ASIC1a (Homo sapiens)
# Construct: expressed in transfected cells; host or cells: HEK293T
# Sequence (P78348 1-528): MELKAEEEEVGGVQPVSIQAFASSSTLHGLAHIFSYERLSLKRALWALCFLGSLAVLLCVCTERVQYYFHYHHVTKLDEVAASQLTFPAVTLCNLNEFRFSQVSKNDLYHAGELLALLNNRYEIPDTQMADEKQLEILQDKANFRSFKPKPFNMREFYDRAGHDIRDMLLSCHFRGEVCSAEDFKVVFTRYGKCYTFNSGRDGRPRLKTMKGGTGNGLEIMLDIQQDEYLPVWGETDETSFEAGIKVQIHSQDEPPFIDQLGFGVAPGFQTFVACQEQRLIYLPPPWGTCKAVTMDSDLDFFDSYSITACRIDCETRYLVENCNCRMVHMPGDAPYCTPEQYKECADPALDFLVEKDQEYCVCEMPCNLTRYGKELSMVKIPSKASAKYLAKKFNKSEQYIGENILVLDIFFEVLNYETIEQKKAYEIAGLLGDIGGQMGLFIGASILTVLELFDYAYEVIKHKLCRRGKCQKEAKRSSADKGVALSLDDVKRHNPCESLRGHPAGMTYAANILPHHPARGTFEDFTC
# assay-notes: Whole-cell voltage-clamp recording of ASIC1a currents in transfected HEK293T cells
# Assay type: cell-based
endpoint: pIC50
One number for each entry, as −log10 of the molar value.

(Q) Name the reported pIC50 value associated with the compound C=CC1C2C=C(C)CC1(N(C)C)C1=C(C(=O)OC)C(=O)NC1(O)C2 (stereo not shown)
(A) 4.31
